Collected protein stability index values appear next to each entry.
B1: TRAF3IP2 (parent)
chain: YGHDYPRAAYQQVIQPALPGQPLP

# Variants of: B1
# test_protocol: protein stability index of a GFP-peptide fusion (GPS, HEK-293T) (PSI 1-6); higher = more stable;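 further: lentivirally expressed fusions sorted by FACS into six bins by GFP to DsRed ratio, PSI derived from sequencing read proportions per bin multiplied by bin number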
# particulars: c terminus: a fixed tail appended

| mutant_id | protein stability index |
| --- | --- |
| P22L | 1.39 |
| Y5A | 4.22 |
| P6V | 1.56 |
| H3A | 2.05 |
| Y1D | 4.19 |
| V13M | 1.95 |
| P19V | 2.35 |
| L18W | 2.01 |
| D4C | 1.8 |
| P19Q | 1.54 |
| Y5K | 3.86 |
| G2F | 3.36 |
| P19S | 2.45 |
| I14W | 2.33 |
| I14P | 2.14 |
| A9V | 2.04 |
| H3Q | 2.04 |
| Y1S | 3.75 |
| A17T | 2.62 |
| G2W | 2.03 |
| A9S | 1.71 |
| P19F | 2.44 |
| A17L | 3.12 |
| D4T | 2.13 |
| G2K | 3.69 |
| L18A | 1.75 |
| G20Y | 2.66 |
| P22Q | 2.24 |
| R7H | 2.36 |
| A8K | 2.14 |
| Q21D | 2.58 |
| P24F | 1.9 |
| Y1K | 3.79 |
| L18M | 1.9 |
| L18E | 2.06 |
| P22M | 1.82 |
| D4A | 1.55 |
| A8R | 3.2 |
| R7Q | 2.56 |
| Q12H | 2.01 |
| Y5V | 3.46 |
| Q12D | 1.58 |
| Q12V | 3.04 |
| R7L | 2.27 |
| Q12E | 1.48 |
| Q12K | 2.37 |
